%Inh values, listed per item
system: CSK; conditions: concentration: 1 μM,replicates: in singlicate; n = 1;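 also: KINOMEscan kinase panel screen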
recorded_endpoint: %Inh (%)

>>> df
                                    compound  meas_value
 0  CN1CCN(CCNc2nc3cc(Oc4ccc(NC(=O)Nc5cc(C(F)(F)F)ccc5F)cc4)ccc3[nH]2)CC1.Cl.Cl           0
 1  CC(C)S(=O)(=O)N1CCN(Cc2ccc3c(c2)nc(NC(=O)c2ccsc2)n3C[C@H](O)c2ccccc2)CC1          13
 2  CC(=O)Nc1ccc(-c2cc3ncnc(SCC(=O)O)c3s2)cc1          12
 3  O=C(NCC1CC1)c1ccc(-c2cc(C(=O)NC3CC3)ccc2F)cc1           0
 4  COc1cc2nccc(Nc3ccc(Oc4ccccc4)cc3)c2cc1OC.Cl        91.9
 5  CS(=O)(=O)c1cccc(CNc2nc(Nc3ccc4c(c3)[C@@H]3C[C@@H]4CNC3=O)ncc2C(F)(F)F)c1           0
 6  O=C(Nc1cccc(C(F)(F)F)c1)c1cccc(Oc2ccc3nccn3n2)c1           0
 7  CCN1CCN(CCCC(=O)Nc2n[nH]c3nc(-c4ccc(O)cc4)c(Br)cc23)CC1           0
 8  OCCn1cc(-c2cnc3nnn(Cc4ccc5ncccc5c4)c3n2)cn1          33
 9  N#Cc1cccc(C(=O)NC2CCN(c3ccnc(Nc4ccc(F)cc4)n3)C2)c1 (centres unmarked)          24
10  Cn1ccc2ncnc(Oc3ccc(NC(=O)Nc4ccnc(C(F)(F)F)c4)c(Cl)c3)c21           0
11  O=C(Nc1ccc(Oc2ccc3nc(NC(=O)C4CC4)cn3n2)c(F)c1)c1cccn(-c2ccccc2)c1=O           0
12  COc1cccc(OC)c1C(=O)Nc1cccc(-c2nn3ccccc3c2-c2ccnc(Nc3cccc(F)c3)n2)c1          18
13  C[C@@H]1CNc2c(sc3ccc4nc(-c5ccc(O)cc5)ccc4c23)C(=O)N1           0
14  Cc1ccn2nc(-c3ccc(F)cc3)c(-c3ccncc3)c2c1.Cl           0
15  FC(F)(F)c1cc(Br)cc(Nc2nccc(-c3cnn4ncccc34)n2)c1          17
16  Cc1nnc(-c2ccc3occ(-c4ccc(S(C)=O)cc4)c3n2)o1 (centres unmarked)           0
17   CC(=O)c1c(-c2ccncc2)[nH]c(-c2ccncc2)c1C           8
18  COC(=O)Nc1nc2cc(Oc3ccc(NC(=O)Nc4cc(C(F)(F)F)ccc4Cl)cc3)ccc2[nH]1.Cl           0
19  Cn1ccc2ncnc(Oc3ccc(NC(=O)Nc4cc(C(C)(C)C)on4)c(Cl)c3)c21           0
20      Cn1cc(-c2cccc3c(N)c(C(N)=O)nnc23)cn1          19
21  COc1cc2ncn(-c3cc(OCC4CCCCC4)c(C(N)=O)s3)c2cc1OC           0
22  CCn1c(-c2nonc2N)nc2cncc(CNC3CCNCC3)c21.Cl           0
23  COc1cccc(CNC(=O)NC2CCN(c3ccnc(Nc4cc(OC)c(OC)c(OC)c4)n3)C2)c1 (centres unmarked)          20
24  Cl.Cl.NC[C@H](CC1CCCCC1)NC(=O)c1ccc(-c2ccnc3[nH]ccc23)s1           0
25  Cn1ccc2ncnc(Oc3ccc(NC(=O)Nc4cnn(C(C)(C)C)c4)c(Cl)c3)c21           0
26        NC(=O)Nc1sc(-c2ccc(F)cc2)cc1C(N)=O           6
27  Cn1ccc2ncnc(Oc3ccc(NC(=O)Nc4cncc(C(F)(F)F)c4)c(Cl)c3)c21           0
28             O=C1NCCc2[nH]c(-c3ccncc3)cc21          10
29  O=C(NOCC1CC1)c1cc(Br)c(F)c(F)c1Nc1ccc(I)cc1Cl           0
30  CNC(=O)c1ccccc1Nc1nc(Nc2cccc(CS(C)(=O)=O)c2)ncc1C.O=CO        95.1
31  C[C@@H](Oc1cc(-n2cnc3cc(-c4cnn(C)c4)ccc32)sc1C(N)=O)c1ccccc1Cl           3
32  COc1ccc(Nc2nccc(N3CCC(NC(=O)c4cccc(C#N)c4)C3)n2)cc1 (centres unmarked)           0
33  Cl.c1ccc(Oc2ccc(Nc3ccnc4cc(-c5ccc(CN6CCNCC6)o5)ccc34)cc2)nc1          72
34  COC(=O)c1cccc(NC(=O)NC2CCN(c3ccnc(NCc4ccc(F)cc4)n3)CC2)c1           0
